The measurements presented in this section are drawn from ChEMBL document CHEMBL1127903.

Answer each item with its documented ED50 ratio.
- TARGET: Tubulin alpha chain (Sus scrofa) (UniProt P02550)
- Sequence (P02550 whole entry, looked up): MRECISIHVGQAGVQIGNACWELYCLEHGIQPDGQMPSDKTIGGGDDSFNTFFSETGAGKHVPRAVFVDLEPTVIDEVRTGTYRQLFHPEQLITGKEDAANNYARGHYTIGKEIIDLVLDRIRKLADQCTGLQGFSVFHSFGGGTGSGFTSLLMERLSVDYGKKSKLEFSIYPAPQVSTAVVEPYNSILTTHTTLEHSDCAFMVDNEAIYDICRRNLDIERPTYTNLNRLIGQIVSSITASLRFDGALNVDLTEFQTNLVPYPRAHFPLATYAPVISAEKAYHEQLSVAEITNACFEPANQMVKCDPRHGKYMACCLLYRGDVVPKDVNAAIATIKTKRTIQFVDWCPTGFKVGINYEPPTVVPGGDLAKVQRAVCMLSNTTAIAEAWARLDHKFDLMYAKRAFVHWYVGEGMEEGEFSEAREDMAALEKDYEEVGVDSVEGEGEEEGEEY
- TEST DETAILS: Tested for the effect on polymerization of the tubulin present by microtubule assembly assay relative to taxol as1
- Format: functional
Answers are plain numbers.

Solved entries:
CC(=O)O[C@H]1C(=O)[C@@]2(C)[C@H]([C@H](OC(=O)c3ccccc3)[C@]3(O)C[C@H](OC(=O)[C@H](O)[C@@H](NC(=O)c4ccccc4)c4ccco4)C(C)=C1C3(C)C)[C@]1(OC(C)=O)CO[C@@H]1C[C@@H]2O
0.9
CC(=O)O[C@H]1C(=O)[C@@]2(C)[C@H]([C@H](OC(=O)c3ccccc3)[C@]3(O)C[C@H](OC(=O)[C@H](O)[C@@H](NC(=O)c4ccccc4)c4ccccn4)C(C)=C1C3(C)C)[C@]1(OC(C)=O)CO[C@@H]1C[C@@H]2O
0.7
CC(=O)O[C@H]1C(=O)[C@@]2(C)[C@H]([C@H](OC(=O)c3ccccc3)[C@]3(O)C[C@H](OC(=O)[C@H](O)[C@@H](NC(=O)c4ccccc4)c4cccnc4)C(C)=C1C3(C)C)[C@]1(OC(C)=O)CO[C@@H]1C[C@@H]2O
0.5
CC(=O)O[C@H]1C(=O)[C@@]2(C)[C@H]([C@H](OC(=O)c3ccccc3)[C@]3(O)C[C@H](OC(=O)[C@H](O)[C@@H](NC(=O)c4ccccc4)c4ccncc4)C(C)=C1C3(C)C)[C@]1(OC(C)=O)CO[C@@H]1C[C@@H]2O
0.4

-- ask Please look up its ED50 ratio: CC(=O)O[C@H]1C(=O)[C@@]2(C)[C@H]([C@H](OC(=O)c3ccccc3)[C@]3(O)C[C@H](OC(=O)[C@H](O)[C@@H](NC(=O)c4ccccc4)c4ccoc4)C(C)=C1C3(C)C)[C@]1(OC(C)=O)CO[C@@H]1C[C@@H]2O
-- reply 0.9
